Data origin, for the record: ChEMBL document CHEMBL1157595

Would you mind telling me the reported log10(IC50) of each entry?
- target.or.test.system: UniProt P0DPI0
- test.method.notes: Inhibition of Clostridium botulinum toxin BoNT/A light chain by FRET assay
Note the log scale: values are log10 of IC50 expressed in µM.

* c1cc(C2=NCCCN2)ccc1Oc1ccc(-c2nc3ccc(C4=NCCCN4)cc3[nH]2)cc1 | 1.45
* c1cc(C2=NCCCN2)ccc1Oc1ccc(-c2cc3ccc(C4=NCCCN4)cc3[nH]2)cc1 | 1.32
* c1cc(C2=NCCN2)ccc1Oc1ccc(-c2nc3ccc(C4=NCCN4)cc3[nH]2)cc1 | 1.39

Value sought for every listed compound: log10(IC50).
1. c1cc(C2=NCCCN2)ccc1Oc1ccc(-c2cc3ccc(C4=NCCCN4)cc3[nH]2)nc1
2. OC1CN=C(c2ccc(Oc3ccc(-c4cc5ccc(C6=NCC(O)CN6)cc5[nH]4)cc3)cc2)NC1 (stereo not drawn)
3. CN(C)CC/N=C(\N)c1ccc(Oc2ccc(-c3cc4ccc(/C(N)=N/CCN(C)C)cc4[nH]3)cc2)cc1
4. c1cc(C2=NCCN2)ccc1Oc1ccc(-c2cc3ccc(C4=NCCN4)cc3s2)cc1
5. c1cc(C2=NCCN2)ccc1Oc1ccc(-c2cc3ccc(C4=NCCN4)cc3[nH]2)nc1
6. N=C(N)c1ccc(Oc2ccc(-c3cc4ccc(C(=N)N)cc4[nH]3)cc2)cc1
7. c1cc(C2=NCCCN2)ccc1Oc1ccc(-c2cc3ccc(C4=NCCCN4)cc3s2)cc1
8. N#Cc1ccc(Oc2ccc(-c3cc4ccc(C5=NCCN5)cc4[nH]3)cc2)c(Cl)c1

Out:
1.83
0.86
0.40
0.85
1.84
1.04
1.73
1.48

Value sought for every listed compound: log10(IC50).
1. c1cc(-c2cc3ccc(C4=NCCN4)cc3s2)ccc1C1=NCCN1
2. c1cc(-c2cc3ccc(C4=NCCN4)cc3[nH]2)ccc1C1=NCCN1
3. c1cc(C2=NCCN2)ccc1Oc1ccc(-c2cc3ccc(C4=NCCN4)cc3[nH]2)cc1

Out:
1. 1.63
2. 1.30
3. 1.10

----------
- target.or.test.system: Botulinum neurotoxin type A (Clostridium botulinum)
- Sequence (P0DPI0 2-448 limits assumed): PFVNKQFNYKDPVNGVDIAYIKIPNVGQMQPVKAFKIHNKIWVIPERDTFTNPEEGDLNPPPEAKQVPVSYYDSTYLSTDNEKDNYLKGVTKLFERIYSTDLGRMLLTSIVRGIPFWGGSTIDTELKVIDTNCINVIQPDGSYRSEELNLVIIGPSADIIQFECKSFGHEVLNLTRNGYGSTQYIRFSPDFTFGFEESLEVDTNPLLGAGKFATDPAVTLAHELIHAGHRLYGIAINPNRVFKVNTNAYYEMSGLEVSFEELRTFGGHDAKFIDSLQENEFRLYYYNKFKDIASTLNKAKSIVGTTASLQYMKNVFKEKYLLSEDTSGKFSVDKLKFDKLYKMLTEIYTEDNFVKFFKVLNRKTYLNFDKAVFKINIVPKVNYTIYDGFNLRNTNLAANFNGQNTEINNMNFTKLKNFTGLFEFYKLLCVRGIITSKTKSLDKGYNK
- test.method.notes: Inhibition of Clostridium botulinum toxin BoNT/A light chain
readout.label: pIC50
Numbers only, as −log10 of the molar value.

Entry CCOc1ccc(C(Nc2cccnc2)c2cc(Cl)c3cccnc3c2O)cc1 (configuration not stated) , pIC50 reported as 6.30

----------
- target.or.test.system: Lethal factor (Bacillus anthracis)
- Sequence (P15917 whole entry): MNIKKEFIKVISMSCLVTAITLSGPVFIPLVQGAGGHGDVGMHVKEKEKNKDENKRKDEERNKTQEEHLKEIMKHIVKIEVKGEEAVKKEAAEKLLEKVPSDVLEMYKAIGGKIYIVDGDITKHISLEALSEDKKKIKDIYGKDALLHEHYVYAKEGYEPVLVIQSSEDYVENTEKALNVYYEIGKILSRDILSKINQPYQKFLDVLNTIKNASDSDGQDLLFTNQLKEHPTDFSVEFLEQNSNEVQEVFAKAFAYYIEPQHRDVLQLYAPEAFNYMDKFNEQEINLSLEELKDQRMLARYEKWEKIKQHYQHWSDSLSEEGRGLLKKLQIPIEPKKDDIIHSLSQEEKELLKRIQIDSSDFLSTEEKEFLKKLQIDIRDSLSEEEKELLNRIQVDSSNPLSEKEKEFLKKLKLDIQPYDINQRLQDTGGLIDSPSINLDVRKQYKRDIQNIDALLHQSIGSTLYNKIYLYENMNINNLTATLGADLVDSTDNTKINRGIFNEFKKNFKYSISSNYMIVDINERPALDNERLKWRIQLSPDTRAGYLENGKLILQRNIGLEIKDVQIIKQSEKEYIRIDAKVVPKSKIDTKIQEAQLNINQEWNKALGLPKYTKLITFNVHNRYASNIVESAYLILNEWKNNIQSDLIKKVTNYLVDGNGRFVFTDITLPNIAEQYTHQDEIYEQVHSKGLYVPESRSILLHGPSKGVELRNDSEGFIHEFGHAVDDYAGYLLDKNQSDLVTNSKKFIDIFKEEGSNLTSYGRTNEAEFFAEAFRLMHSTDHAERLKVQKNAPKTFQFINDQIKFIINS
readout.label: IC50

Use the examples below as a reference point.
- c1cc(-c2cc3ccc(C4=NCCN4)cc3[nH]2)ccc1C1=NCCN1: 49 µM
- N#Cc1ccc(Oc2ccc(-c3cc4ccc(C5=NCCN5)cc4[nH]3)cc2)c(Cl)c1: > 100 µM
- Clc1ccc(Oc2ccc(-c3cc4ccc(C5=NCCN5)cc4[nH]3)cc2)c(Cl)c1: > 100 µM
- N#Cc1ccc(Oc2ccc(-c3cc4ccc(C#N)cc4[nH]3)nc2)cc1: > 100 µM

Entry c1cc(-c2cc3ccc(C4=NCCCN4)cc3[nH]2)ccc1C1=NCCCN1 , IC50 reported as > 100 µM
